# System: human telomerease (HL60 cell extract)
# METHOD: Antitelomerease activity: extension of oligonucleotide TS followed by PCR amplification, with HL60 extract
# Assay type: biochemical
# SETTINGS: read-out: TRAP IC50
Each entry below carries its recorded pIC50.
Please report pIC50 as the negative decimal logarithm of the molar concentration, giving only the number.

// below: answered compounds
Cc1cc(N)c2cc(Nc3nc(NCc4ccccn4)nc(Nc4ccc5nc(C)cc(N)c5c4)n3)ccc2n1 | 6.00
Cc1cc(N(C)C)c2cc(Nc3nc(Nc4ccc5nc(C)cc(N(C)C)c5c4)nc(C4CCN(C)CC4)n3)ccc2n1 | 6.28

// lookup pIC50 for Cc1cc(N)c2cc(Nc3nc(Nc4ccc5nc(C)cc(N)c5c4)nc(SCCN(C)C)n3)ccc2n1
6.40

// lookup pIC50 for Cc1cc(N)c2cc(Nc3nc(Nc4ccc5nc(C)cc(N)c5c4)nc(OCc4ccccn4)n3)ccc2n1
5.90

====

# Test system: A549 cells
# METHOD: Cytotoxic activity on human tumour line A549, neutral red, 96 hours
# Format: cell-based
# SETTINGS: Homo sapiens, A549, A549; read-out: Cytotox. A549 IC50
# Description: The cytotoxic biological activity on human tumour lines is determined according to the following experimental protocol: The human cell lines A549 are obtained from ATCC (American Type Culture Collection, Rockville, USA). The A549 cells are cultured in a layer in a culture flask in RPMI 1640 medium containing L-glutamine at 2 mM, penicillin 200 U/ml, streptomycin 200 μg/ml and supplemented with 10% heat-inactivated foetal calf serum. […]
MEASURED ATTRIBUTE: IC50 (µM)
Please reply with the bare figure in µM and do not write the unit itself.

// below: answered compounds
Cc1cc(N(C)C)c2cc(Nc3nc(NCCN4CCN(Cc5ccccc5)CC4)nc(Nc4ccc5nc(C)cc(N(C)C)c5c4)n3)ccc2n1 | 0.512
Cc1cc(N)c2cc(Nc3nc(NCc4ccc(N(C)C)cc4)nc(Nc4ccc5nc(C)cc(N)c5c4)n3)ccc2n1 | 16
COc1cccc(Oc2nc(Nc3ccc4nc(C)cc(N)c4c3)nc(Nc3ccc4nc(C)cc(N)c4c3)n2)c1 | 11.4
Cc1cc(N)c2cc(Nc3nc(Nc4ccc5nc(C)cc(N)c5c4)nc(Sc4ccccc4)n3)ccc2n1 | 19.5
Cc1cc(N)c2cc(Nc3nc(Nc4ccc5nc(C)cc(N)c5c4)nc(OCCN(C)Cc4ccccc4)n3)ccc2n1 | 11.6

// lookup IC50 for Cc1cc(N)c2cc(Nc3nc(Nc4ccc5nc(C)cc(N)c5c4)nc(Sc4ccccc4Cl)n3)ccc2n1
13.7

// lookup IC50 for Cc1cc(N)c2cc(Nc3nc(Nc4ccc(N5CCNCC5)cc4)nc(Nc4ccc5nc(C)cc(N)c5c4)n3)ccc2n1
1.85

// lookup IC50 for Cc1cc(N)c2cc(Nc3nc(Nc4ccc5nc(C)cc(N)c5c4)nc(Sc4ccccn4)n3)ccc2n1
17.8

// lookup IC50 for Cc1cc(N(C)C)c2cc(Nc3nc(NCCCN(C)C)nc(Nc4ccc5nc(C)cc(N(C)C)c5c4)n3)ccc2n1
0.23

// lookup IC50 for Cc1cc(N)c2cc(Nc3nc(Nc4ccc5nc(C)cc(N)c5c4)nc(N4CCN(C(=O)c5ccco5)CC4)n3)ccc2n1
11.5

====

# System: A549 cells
# METHOD: Cytotoxic activity on human tumour line A549, neutral red, 96 hours
# Assay type: cell-based
# SETTINGS: A549; read-out: Cytotox. A549 IC50
MEASURED ATTRIBUTE: pIC50
Please report pIC50 as the negative decimal logarithm of the molar concentration, giving only the number.

Cc1cc(N(C)C)c2cc(Nc3nc(NCc4ccncc4)nc(Nc4ccc5nc(C)cc(N(C)C)c5c4)n3)ccc2n1 [Example 145] | 6.38

Let us move to another entry and its pIC50.
// lookup pIC50 | system=A549 cells | key= Cc1cc(N(C)C)c2cc(Nc3nc(NCc4ccncc4)nc(Nc4ccc5nc(C)cc(N(C)C)c5c4)n3)ccc2n1 [Example 27]
6.00
